Could you please report measured GI50 for the items listed next?
Tested on: CAKI-1
Experiment: NCI tumour cell line growth inhibition, 48 h
Activity calls are given as the source filed them. Cut-off read from the data, not from the text of the source: active = GI50 up to about 1.1 µM and inactive = higher.

Can you look up the measured GI50 of COC(OC)C(O)C1OC=CC1n1cnc2c(N)ncnc21 (centres undefined) for me?
> 100 µM (inactive)

Endpoint output: GI50 of "O=C(CCC(=O)Nc1ccc(Cl)c(Cl)c1)CC(=O)c1ccc(F)cc1" . Value?
> 100 µM (inactive)

Given "CC[C@]12C=CCN3CC[C@@]4(c5cc(Br)c(OC)cc5N(C)[C@H]4[C@@](O)(C(=O)N[C@@H](Cc4ccc(O)cc4)C(=O)OC)[C@@H]1O)[C@@H]32" , state its recorded GI50.
18.7 µM (inactive)

Which value of GI50 has been reported for "O=[N+]([O-])c1ccc(-c2nc(/C=N/N3CCCCC3)cs2)o1" in the records?
> 100 µM (inactive)
